- System: human leukemia NB4 cells
- Protocol description: Cell growth, CellTiter-Fluor cell viability assay, NB4
- Format: cell-based
- Condition label: NB-4, 48 h incubation, read-out: IC50 against human leukemia NB4 cells
pIC50: −log10 of the molar value. Structures can show the parent of a compound that is named as a salt.
So I've got a bunch of molecules here, and I need their pIC50 values.

// below: answered molecules
| Molecule | pIC50 |
| --- | --- |
| Cn1c(C(=O)c2cn(CCOc3cccc(OC[C@H]4CCNC4)c3)c3ccccc23)cc2sccc21 [Compound 13, hydrochloride] | > 5.00 |
| Cn1c(C(=O)c2cn(CCOc3cccc(OC[C@@H]4CCNC4)c3)c3ccccc23)cc2sccc21 [Compound 14, hydrochloride] | > 5.00 |
| Cn1c(C(=O)c2cn(CCOc3ccc(OCC4CCNCC4)cc3)c3ccccc23)cc2sccc21 [Compound 19, hydrochloride] | > 5.00 |

For each of the items listed, what is its pIC50?
1. Cn1c(C(=O)c2cn(CCOc3cccc(O[C@@H]4CCCNCC4)c3)c3ccccc23)cc2sccc21 (stereo in doubt) [Compound 20, hydrochloride]
2. Cn1c(C(=O)c2cn(CCOc3cccc(OCC4CCNCC4)c3)c3ccccc23)cc2sccc21 [Compound 18, hydrochloride]
3. Cn1c(C(=O)c2cn(CCCc3ccc(OC4CCNCC4)cc3)c3ccccc23)cc2sccc21 [Compound 24, hydrochloride]

Result:
1. > 5.00
2. > 5.00
3. > 5.00

====

- Target under test: human recombinant KDM1A/CoREST protein (Homo sapiens, UniProt O60341)
- Construct: made in house; host or cells: E. coli
- Protocol description: Assay of enzyme inhibition of KDM1A (LSD1), TR-FRET
- Format: biochemical
Readout kind: IC50

Q: Given the compound COCCn1cc(C(=O)c2cc3sccc3n2C)c2ccccc21 [Compound 8] , write its reported IC50.
Result: < 50 µM
